Just for reference, patent US20250147039A1 is where these values come from.

- TEST_DETAILS: Formation of 1,5-cz-[Ln(Lig)] from Lig and Ln^III ions (metal dependent click-zip), MOPS/NaOH buffer pH 7.0, analytical HPLC (Charts 1, 2)
- EXPERIMENTAL_CONTEXT: Ho^III; after 1 hour at 80° C.; MOPS/NaOH buffer pH 7.0
Labelling field: enter true (1) if recorded conversion to 1,5-cz-[Ln(Lig)], Ho^III is less than 3%. Enter false (0) if it equals or exceeds that cut-off.

Record C#Cc1cccc(CN2CCN(CC(=O)O)CCN(Cc3cccc(CN=[N+]=[N-])n3)CCN(CC(=O)O)CC2)n1 [TD556] : is its conversion to 1,5-cz-[Ln(Lig)], Ho^III strictly below 3%?
false (0)

Record C#Cc1cccc(CN2CCN(CC(=O)O)CCN(Cc3cc(N(C)C)cc(CN=[N+]=[N-])n3)CCN(CC(=O)O)CC2)n1 [TD1176] : is its conversion to 1,5-cz-[Ln(Lig)], Ho^III strictly below 3%?
false (0)

Record C#Cc1cccc(CN2CCN(CC(=O)O)CCN(Cc3cc(C(=O)OC(C)C)cc(CN=[N+]=[N-])n3)CCN(CC(=O)O)CC2)n1 [TD1148] : is its conversion to 1,5-cz-[Ln(Lig)], Ho^III strictly below 3%?
false (0)

Record CC(C)(C)C#Cc1cccc(CN2CCN(CC(=O)O)CCN(Cc3cccc(CN=[N+]=[N-])n3)CCN(CC(=O)O)CC2)n1 [TD959] : is its conversion to 1,5-cz-[Ln(Lig)], Ho^III strictly below 3%?
true (1)

Record C#Cc1cccc(CN2CCN(CP(=O)(O)c3ccccc3)CCN(Cc3cccc(CN=[N+]=[N-])n3)CCN(CP(=O)(O)c3ccccc3)CC2)n1 [TD921] : is its conversion to 1,5-cz-[Ln(Lig)], Ho^III strictly below 3%?
true (1)

----------
- TEST_DETAILS: Formation of 1,5-cz-[M(Lig)] from Lig and M^III ions (metal dependent click-zip) (Charts 4, 5)
- Type: physicochemical
- EXPERIMENTAL_CONTEXT: 1 hour at 80° C.; MOPS/NaOH buffer pH 7.0; TD728, TD827 in 50% i-PrOH; TD714 sum of two diastereoisomers
So basically: conversion to 1,5-cz-[M(Lig)], Y^III at 2% or higher? That is 1. Lower than 2%? That is 0.

Hi, just wondering whether "C#Cc1cccc(CN2CCN(CC(=O)NCC(=O)O)CCN(Cc3cc(-c4ccccc4)cc(CN=[N+]=[N-])n3)CCN(CC(=O)NCC(=O)O)CC2)n1" shows conversion to 1,5-cz-[M(Lig)], Y^III of 2% or higher.
1

Hi, just wondering whether "C#Cc1cccc(CN2CCN(CC(=O)O)CCN(Cc3cccc(CN=[N+]=[N-])n3)CCN(CP(=O)(O)O)CC2)n1" shows conversion to 1,5-cz-[M(Lig)], Y^III of 2% or higher.
1

Hi, just wondering whether "[N-]=[N+]=NCc1cccc(CN2CCN(CC(=O)O)CCN(Cc3cccc(C#CI)n3)CCN(CC(=O)O)CC2)n1" shows conversion to 1,5-cz-[M(Lig)], Y^III of 2% or higher.
1

Hi, just wondering whether "C#Cc1cccc(CN2CCN(CC(=O)O)CCN(Cc3cc(C(=O)OC)cc(CN=[N+]=[N-])n3)CCN(CC(=O)O)CC2)n1" shows conversion to 1,5-cz-[M(Lig)], Y^III of 2% or higher.
1

Hi, just wondering whether "C#Cc1cccc(CN2CCN(CC(=O)O)CCN(Cc3cc(C#C[Si](C(C)C)(C(C)C)C(C)C)cc(CN=[N+]=[N-])n3)CCN(CC(=O)O)CC2)n1" shows conversion to 1,5-cz-[M(Lig)], Y^III of 2% or higher.
1

Hi, just wondering whether "C#Cc1cccc(CN2CCN(CC(=O)O)CCN(Cc3cc(-c4ccccc4)cc(CN=[N+]=[N-])n3)CCN(CC(=O)O)CC2)n1" shows conversion to 1,5-cz-[M(Lig)], Y^III of 2% or higher.
1

Hi, just wondering whether "C#Cc1cccc(CN2CCN(CC(=O)O)CCN(Cc3cccc(CN=[N+]=[N-])n3)CCN(CC(=O)O)CC2)n1" shows conversion to 1,5-cz-[M(Lig)], Y^III of 2% or higher.
1

Hi, just wondering whether "C#Cc1cccc(CN2CCN(CP(=O)(O)OCC)CCN(Cc3cccc(CN=[N+]=[N-])n3)CCN(CP(=O)(O)OCC)CC2)n1" shows conversion to 1,5-cz-[M(Lig)], Y^III of 2% or higher.
1

Hi, just wondering whether "[N-]=[N+]=NCc1cccc(CN2CCN(CC(=O)O)CCN(Cc3cccc(C#Cc4ccccc4)n3)CCN(CC(=O)O)CC2)n1" shows conversion to 1,5-cz-[M(Lig)], Y^III of 2% or higher.
0

Hi, just wondering whether "CC(C)(C)C#Cc1cccc(CN2CCN(CC(=O)O)CCN(Cc3cccc(CN=[N+]=[N-])n3)CCN(CC(=O)O)CC2)n1" shows conversion to 1,5-cz-[M(Lig)], Y^III of 2% or higher.
0

Hi, just wondering whether "C#Cc1cccc(CN2CCN(CC(=O)O)CCN(Cc3cc(C(=O)OC(C)(C)C)cc(CN=[N+]=[N-])n3)CCN(CC(=O)O)CC2)n1" shows conversion to 1,5-cz-[M(Lig)], Y^III of 2% or higher.
0
